Test system: Colletotrichum lindemuthianum
protocolSummary: Example B: in vitro cell test, spore germination and mycelium growth in liquid culture
Format: cell-based
experimentalParameters: 144 h, 20 ppm of tested compound, 6 days incubation, read-out: efficacy (inhibition of fungal growth)
measuredParameter: inhibition of growth at 20 µg/mL

Known results for compounds:
compound: ON(Cc1ccccc1)c1ncc(-c2nnc(C(F)F)o2)cn1 [I.110]
inhibition of growth at 20 µg/mL: 90 to 100%
//
compound: FC(F)c1nnc(-c2cnc(N[C@@H]3C[C@H]3c3ccccc3)nc2)o1 (racemic) [I.196]
inhibition of growth at 20 µg/mL: 70 to 79%
//
compound: FC(F)(F)c1nnc(-c2cnc(NC3(c4ccccc4)CCC3)nc2)o1 [I.160]
inhibition of growth at 20 µg/mL: 80 to 89%
//
compound: FC(F)(Cl)c1nnc(-c2cnc(NC3(c4ccccc4)CCC3)nc2)o1 [I.176]
inhibition of growth at 20 µg/mL: 70 to 79%
//
compound: FC(F)c1nnc(-c2cnc(NC3(c4ccccc4)CCC3)nc2)o1 [I.134]
inhibition of growth at 20 µg/mL: 90 to 100%

Lookup result for Fc1ccc(C2(Nc3ncc(-c4nnc(C(F)F)o4)cn3)CC2)cc1 [I.146] ; measured inhibition of growth at 20 µg/mL: 70 to 79%

inhibition of growth at 20 µg/mL reading for CCC(Nc1ncc(-c2nnc(C(F)F)o2)cn1)c1ccccc1 (racemic) [I.122] : 90 to 100%

Reported inhibition of growth at 20 µg/mL ( CC(Sc1ncc(-c2nnc(C(F)F)o2)cn1)c1ccccc1 (racemic) [I.123] ) = 90 to 100%

The value of inhibition of growth at 20 µg/mL measured for the compound COc1ccc(C2(Nc3ncc(-c4nnc(C(F)F)o4)cn3)CC2)cc1 [I.157] turned out to be 80 to 89%
